# Tested on: 786-O
# experiment: Euclidean distance of Cell Painting phenotypic profile (signed KS, 77 features) to DMSO centroid (dimensionless distance); 5 or 10 uM (library dependent); higher = stronger phenotypic change vs DMSO (phenoactivity)
# test-settings: 48 h
Where a name gives a salt, the structure may show the parent alone.
endpoint: Euclidean distance
Write the number on its own, no unit after it.

Item: c1ccc(C2CN3CCSC3=N2)cc1 (single isomer, unassigned; (-)) [(-)-Tetramisole] Test system: 786-O Read-out: Euclidean distance Value: ? 1.24

Item: `FC(F)(c1ccc2ncccc2c1)c1nnc2ccc(-c3ccncc3)nn12` Test system: 786-O Read-out: Euclidean distance Value: ? 1.6

Item: CC(COc1ccccc1)NC(C)C(O)c1ccc(O)cc1 (centres undefined) [Isoxsuprine hydrochloride] Test system: 786-O Read-out: Euclidean distance Value: ? 1.44

Item: COc1ccc(-c2cc(=S)ss2)cc1 [Anethole trithione] Test system: 786-O Read-out: Euclidean distance Value: ? 1.49

Item: CC(C(=O)O)c1cccc(Oc2ccccc2)c1 (centres undefined) [Fenoprofen Calcium] Test system: 786-O Read-out: Euclidean distance Value: ? 0.95

Item: C[C@H]1NCc2cc(-c3ccc4c(=O)c(C(=O)O)cn(C5CC5)c4c3OC(F)F)ccc21 [Garenoxacin] Test system: 786-O Read-out: Euclidean distance Value: ? 0.629

Item: `Cc1cc(Nc2cc(CN3CCOCC3)c3nc(C)c(Cc4ccc(Cl)cc4F)n3n2)n[nH]1` Test system: 786-O Read-out: Euclidean distance Value: ? 3.25

Item: N#Cc1ccc([C@H]2CCc3cncn32)c(F)c1 [Osilodrostat (LCI699)] Test system: 786-O Read-out: Euclidean distance Value: ? 1.39

Item: `COc1ccc(C[C@H](NC(=O)[C@H](C)NC(=O)CN2CCOCC2)C(=O)N[C@@H](Cc2ccccc2)C(=O)[C@@]2(C)CO2)cc1` Test system: 786-O Read-out: Euclidean distance Value: ? 5.28

###

# Test system: 786-O
# experiment: Euclidean distance of Cell Painting phenotypic profile (signed KS, 77 features) to DMSO centroid (dimensionless distance); 5 or 10 uM (library dependent); higher = stronger phenotypic change vs DMSO (phenoactivity)
# test-settings: 48 h
Where a name gives a salt, the structure may show the parent alone.
Can you tell me Euclidean distance for the items I'm about to list?
Write the number on its own, no unit after it.

Look up Euclidean distance for this compound: NC12CC3CC(CC(C3)C1)C2 [Amantadine HCl] 1.14

Look up Euclidean distance for this compound: `CN(C(=O)c1c(O)c2ccccc2n(C)c1=O)c1ccccc1` 0.929

Look up Euclidean distance for this compound: `O=C(O)COC(=O)Cc1ccccc1Nc1c(Cl)cccc1Cl` 1.26

Look up Euclidean distance for this compound: `C=C(NC(=O)C(=C)NC(=O)c1csc(C2=N[C@@H]3c4csc(n4)[C@H]4NC(=O)c5csc(n5)[C@H]([C@](C)(O)[C@@H](C)O)NC(=O)[C@H]5CSC(=N5)/C(=C/C)NC(=O)[C@H]([C@@H](C)O)NC(=O)c5csc(n5)[C@]3(CC2)NC(=O)[C@H](C)NC(=O)C(=C)NC(=O)[C@H](C)NC(=O)[C@H]([C@@H](C)CC)N[C@@H]2C=Cc3c([C@H](C)O)cc(nc3[C@H]2O)C(=O)O[C@@H]4C)n1)C(N)=O` 4.46

Look up Euclidean distance for this compound: `O=C(O)/C=C/c1ccc(O)cc1` 1.47

Look up Euclidean distance for this compound: `O=C1c2c(O)cccc2Cc2cccc(O)c21` 2.26

Look up Euclidean distance for this compound: `COc1ccc([C@@H]2CC(=O)c3c(O)cc(O)cc3O2)cc1O` 1.32

Look up Euclidean distance for this compound: CCCCC(C)(O)C/C=C/[C@H]1[C@H](O)CC(=O)[C@@H]1CCCCCCC(=O)OC (mixture of isomers) 1.2
